All figures here come from the supplement of paper PMC3334620.

Measured PBM E-score by item
# TEST TARGET: Ybr033w (UniProt P38073)
# Sequence: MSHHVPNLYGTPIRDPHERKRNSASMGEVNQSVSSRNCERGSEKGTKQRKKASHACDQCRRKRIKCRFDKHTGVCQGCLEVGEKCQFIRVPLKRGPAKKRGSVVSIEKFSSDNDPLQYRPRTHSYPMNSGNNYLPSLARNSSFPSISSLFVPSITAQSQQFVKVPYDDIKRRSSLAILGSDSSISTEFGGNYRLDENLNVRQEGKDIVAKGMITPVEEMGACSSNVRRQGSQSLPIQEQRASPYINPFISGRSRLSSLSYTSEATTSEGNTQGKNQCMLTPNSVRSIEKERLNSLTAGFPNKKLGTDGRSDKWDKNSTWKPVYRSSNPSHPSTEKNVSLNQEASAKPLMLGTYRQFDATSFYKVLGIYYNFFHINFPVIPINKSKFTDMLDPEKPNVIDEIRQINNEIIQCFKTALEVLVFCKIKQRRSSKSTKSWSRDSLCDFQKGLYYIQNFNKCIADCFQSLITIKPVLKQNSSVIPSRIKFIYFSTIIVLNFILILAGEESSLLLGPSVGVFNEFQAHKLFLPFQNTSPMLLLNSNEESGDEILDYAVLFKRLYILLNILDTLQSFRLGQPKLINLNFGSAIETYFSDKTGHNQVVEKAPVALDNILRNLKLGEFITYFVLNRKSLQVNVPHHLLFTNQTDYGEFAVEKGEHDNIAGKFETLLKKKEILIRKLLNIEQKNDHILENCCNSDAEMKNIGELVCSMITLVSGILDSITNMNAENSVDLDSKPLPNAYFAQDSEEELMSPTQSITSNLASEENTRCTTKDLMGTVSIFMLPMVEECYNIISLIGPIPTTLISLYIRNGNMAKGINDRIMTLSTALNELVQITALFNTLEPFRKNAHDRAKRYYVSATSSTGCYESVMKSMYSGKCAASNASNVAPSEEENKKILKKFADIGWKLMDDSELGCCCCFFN
# ASSAY NOTES: PBM E-score (8-mer binding enrichment) (E-score (-0.5 to 0.5)); higher = stronger / more preferred TF binding
# COND: protein concentration: 200 nM; construct: GST-full length
Over roughly 33,000 sequences, “E-score (-0.5 to 0.5)” has its median near -0.012; the highest 2% begin near 0.29. The sample as a whole holds a higher share of the highest values than the screen did.

RESIDUE STRING	PBM E-score
GTTATCCA	0.0783
AAATTTAC	0.263
ATTGAAAT	0.296
CGAACAAC	0.077
ACTATCCG	0.16
CTTTTGGC	-0.0369
GCATCGCC	-0.17
ATTTCCGG	0.298
AATAATTC	0.386
ATTATCGG	0.0549
GACCTCCC	-0.249
AGCTCTGG	-0.197
CTTGAAAA	0.207
ATTTCCTG	0.3
AATAATGA	0.247
ATTTCCGA	0.247
ATTATCGA	0.0687
AGGATCAG	-0.166
CTGCAAAA	0.022
CCACTTGC	-0.0925
GCTAATTA	0.175
AACCTGCC	-0.0858
ATCTAGAA	0.214
GAACAATA	0.412
ATAATTAA	0.414
CATTGTTA	-0.015
CTGACTCA	-0.0835
GTAATTAA	0.105
CATAATTA	0.284
AATAATTG	0.256
TCGGAAGA	0.193
ATTATCTG	0.218
CTGCGGTC	-0.262
TAATGGAA	0.184
GGGATTAA	0.411
CCCCACAA	-0.229
ATTATAAT	0.205
CTTGAATA	0.155
ATGATTAA	0.231
AGATACCT	-0.0724
ATAATTAT	0.372

====

# TEST TARGET: Ybr033w (UniProt P38073)
# Sequence: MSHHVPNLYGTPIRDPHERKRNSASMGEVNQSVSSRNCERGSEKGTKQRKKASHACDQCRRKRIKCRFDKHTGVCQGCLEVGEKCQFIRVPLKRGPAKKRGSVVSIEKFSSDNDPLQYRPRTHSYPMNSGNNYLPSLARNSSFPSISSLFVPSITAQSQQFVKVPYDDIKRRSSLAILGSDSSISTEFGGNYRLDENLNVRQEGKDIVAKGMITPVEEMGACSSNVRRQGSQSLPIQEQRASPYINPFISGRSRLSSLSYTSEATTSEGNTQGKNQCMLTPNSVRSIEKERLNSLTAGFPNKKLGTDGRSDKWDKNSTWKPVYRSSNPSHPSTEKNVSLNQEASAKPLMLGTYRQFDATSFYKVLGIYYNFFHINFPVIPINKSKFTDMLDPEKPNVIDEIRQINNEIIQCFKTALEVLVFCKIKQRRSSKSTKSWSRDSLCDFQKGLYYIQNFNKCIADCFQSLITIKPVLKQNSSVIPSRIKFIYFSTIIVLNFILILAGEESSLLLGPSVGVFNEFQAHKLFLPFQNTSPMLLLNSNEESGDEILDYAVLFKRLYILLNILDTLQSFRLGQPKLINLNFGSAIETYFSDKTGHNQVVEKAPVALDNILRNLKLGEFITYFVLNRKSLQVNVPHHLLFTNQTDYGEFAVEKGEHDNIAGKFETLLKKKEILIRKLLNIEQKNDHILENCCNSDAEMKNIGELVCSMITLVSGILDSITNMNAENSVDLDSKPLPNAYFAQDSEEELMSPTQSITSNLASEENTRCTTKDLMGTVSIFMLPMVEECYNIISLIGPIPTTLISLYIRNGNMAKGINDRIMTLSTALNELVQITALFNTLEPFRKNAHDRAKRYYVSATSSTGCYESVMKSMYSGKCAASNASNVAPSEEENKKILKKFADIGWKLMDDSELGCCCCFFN
# ASSAY NOTES: PBM E-score (8-mer binding enrichment) (E-score (-0.5 to 0.5)); higher = stronger / more preferred TF binding
# COND: protein concentration: 200 nM; construct: GST-full length
Over roughly 33,000 sequences, “E-score (-0.5 to 0.5)” has its median near -0.012; the highest 2% begin near 0.29. The sample holds the highest values, similar sequences and a random draw of the others, so the mix is not that of the screen.
Hi, to clarify the labels: yes covers PBM E-score from 0.2 upward, no covers anything below 0.2.

RESIDUE STRING	GROUP LABEL
GAAAATTC	yes
GGGCTGAA	no
ACTATATC	yes
GCGGAAAA	yes
AATATTCC	yes
ACGGAAAC	no
CGTATTAA	no
CACCGTGG	no
ATTATGTA	yes
AATTGACG	no
ATTGATCC	yes
GAAATCTC	no
ACTAACCC	no
CTAGAGGA	no
GTTAATCA	yes
CACCGACG	no
AAAATTTA	yes
TAACCAAA	no
AATATTCT	yes
CATATTCC	no
GCGGGAAA	no
AGAATTAC	no
CTTAATAA	no
ACGGAAAT	yes
AATATGAC	no
ACTGGCCC	no
AGAAATTA	yes
GGAATTCC	no
CCGCGCAC	no
AGTAATAA	no
CATATTAA	yes
ATTATGTC	no
GCACTGTA	no

====

# TEST TARGET: Ybr033w (UniProt P38073)
# Sequence: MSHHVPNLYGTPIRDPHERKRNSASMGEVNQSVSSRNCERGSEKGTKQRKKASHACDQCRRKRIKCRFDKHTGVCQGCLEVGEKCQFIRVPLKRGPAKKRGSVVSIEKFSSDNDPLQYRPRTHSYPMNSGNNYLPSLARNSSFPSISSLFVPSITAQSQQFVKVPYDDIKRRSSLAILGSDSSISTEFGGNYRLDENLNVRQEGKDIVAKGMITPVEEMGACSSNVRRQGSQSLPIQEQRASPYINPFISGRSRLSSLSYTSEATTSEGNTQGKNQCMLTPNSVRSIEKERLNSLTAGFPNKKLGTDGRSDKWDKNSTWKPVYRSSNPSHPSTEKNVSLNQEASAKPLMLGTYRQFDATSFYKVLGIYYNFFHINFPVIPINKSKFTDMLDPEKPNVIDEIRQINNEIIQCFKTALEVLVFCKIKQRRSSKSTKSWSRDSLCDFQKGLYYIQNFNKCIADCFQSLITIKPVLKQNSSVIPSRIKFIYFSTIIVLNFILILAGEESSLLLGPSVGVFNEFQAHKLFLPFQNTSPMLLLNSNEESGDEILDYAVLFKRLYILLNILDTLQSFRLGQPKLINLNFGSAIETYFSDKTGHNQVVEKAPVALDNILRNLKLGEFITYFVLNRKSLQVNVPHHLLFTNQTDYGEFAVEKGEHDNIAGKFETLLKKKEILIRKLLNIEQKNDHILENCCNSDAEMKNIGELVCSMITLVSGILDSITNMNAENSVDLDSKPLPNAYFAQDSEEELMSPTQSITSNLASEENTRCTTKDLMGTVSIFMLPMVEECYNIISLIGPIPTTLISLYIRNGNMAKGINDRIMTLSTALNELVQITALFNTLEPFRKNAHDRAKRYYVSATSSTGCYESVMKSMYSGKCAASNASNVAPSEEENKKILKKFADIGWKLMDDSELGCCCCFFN
# ASSAY NOTES: PBM E-score (8-mer binding enrichment) (E-score (-0.5 to 0.5)); higher = stronger / more preferred TF binding
# COND: protein concentration: 200 nM; construct: GST-full length
The full ranking holds about 33,000 sequences; the median of “E-score (-0.5 to 0.5)” is about -0.012, and the highest 2% start at about 0.29. Shown is part of a subset that was picked to be rich in the highest values.
Measured PBM E-score by item
MEASUREMENT NAME: PBM E-score

RESIDUE STRING	TEST TARGET	MEASUREMENT NAME	OBSERVED VALUE
AGTATTCA	Ybr033w (UniProt P38073)	PBM E-score	0.142
AATATCAA	Ybr033w (UniProt P38073)	PBM E-score	0.233
ACAACCAT	Ybr033w (UniProt P38073)	PBM E-score	0.297
GAGACGCC	Ybr033w (UniProt P38073)	PBM E-score	-0.0848
TCATTAAA	Ybr033w (UniProt P38073)	PBM E-score	0.319
ACAACCAG	Ybr033w (UniProt P38073)	PBM E-score	0.102
ACAGCACA	Ybr033w (UniProt P38073)	PBM E-score	0.144
CATCGAGC	Ybr033w (UniProt P38073)	PBM E-score	-0.0235
AAATCGCT	Ybr033w (UniProt P38073)	PBM E-score	-0.173
AATATCAC	Ybr033w (UniProt P38073)	PBM E-score	0.239
AAATATCA	Ybr033w (UniProt P38073)	PBM E-score	0.252
TATTGGCA	Ybr033w (UniProt P38073)	PBM E-score	0.0828
ACTCCTCA	Ybr033w (UniProt P38073)	PBM E-score	-0.135
AGAGTGTG	Ybr033w (UniProt P38073)	PBM E-score	-0.0636
CGTACTGC	Ybr033w (UniProt P38073)	PBM E-score	-0.151
AAATTAAT	Ybr033w (UniProt P38073)	PBM E-score	0.314
GAATATGA	Ybr033w (UniProt P38073)	PBM E-score	0.203
GAGTATCA	Ybr033w (UniProt P38073)	PBM E-score	0.0233
AGACTGCA	Ybr033w (UniProt P38073)	PBM E-score	-0.156
